Reported MIC values follow for various compounds
Test system: Staphylococcus aureus
ASSAY COMMENT: In vitro inhibitory activity in iso sensitest agar against Staphylococcus aureus strain ATCC 6538 in addition with 5%serum
Format: functional

Some entries whose results are on file:
CC(C)CC(=O)C(=O)NCCc1cn(-c2ccccc2)c2ccccc12 :: > 64 µg/mL
CC(C)CC(=O)C(=O)NCCc1cn(C)c2ccccc12 :: > 64 µg/mL
CC(C)CC(=O)C(=O)NCCc1cn(Cc2ccccc2)c2ccccc12 :: > 64 µg/mL
CCC(C)C(=O)C(=O)NCCc1cn(C)c2ccccc12 (stereo not drawn) :: > 32 µg/mL
CCC(C)C(=O)C(=O)NCCc1c[nH]c2ccccc12 (stereo not drawn) :: > 64 µg/mL

Prompt: Name the recorded MIC for `CC(C)CC(=O)C(=O)NCCc1cn(C(C)C)c2ccccc12` .
Response: > 64 µg/mL

Prompt: Name the recorded MIC for CCC(C)C(=O)C(=O)NCCc1cn(Cc2ccccc2)c2ccccc12 (stereo not drawn) .
Response: > 64 µg/mL

Prompt: Name the recorded MIC for CCC(C)C(=O)C(=O)NCCc1cn(C(C)C)c2ccccc12 (stereo not drawn) .
Response: > 32 µg/mL
